This collection of values is drawn from patent US12383515B2.

System: C57/BL6J mice
protocolDescription: NIAAA ethanol model (10 days ethanol in LDLD + binge) of alcoholic liver injury
Format: in vivo, mouse
conditionDetails: 2-HOBA + MD; 0.5 g/L in LDLD

molecule	lymphocytes, % of WBC
NCc1ccccc1O [2-HOBA, 2-Hydroxybenzylamine]	58.1%

====

System: C57/BL6J mice
protocolDescription: NIAAA ethanol model (10 days ethanol in LDLD + binge) of alcoholic liver injury
Format: in vivo, mouse
conditionDetails: 2-HOBA + MD; 0.5 g/L in LDLD

molecule	monocytes, % of WBC / %
NCc1ccccc1O [2-HOBA, 2-Hydroxybenzylamine]	6.66
